Each item that follows carries a reported MIC.
- Tested on: S. aureus Newman
- procedure_details: MIC, microbroth dilution susceptibility assay
- Type: cell-based
- condition_summary: Staphylococcus aureus, NEWMAN; small panel, Tables 1a/1b; read-out: MIC S. aureus Newman
readout_label: MIC

{"line_notation": "CC(C)Oc1c(N)ccc(C(=O)Nc2ccc(C(=O)N[C@@H](CC(N)=O)C(=O)Nc3ccc(C(=O)Nc4ccc(C(=O)Nc5ccc(C(=O)O)cc5)c(O)c4OC(C)C)cc3)cc2)c1O", "result": "> 64 mg/L"}
{"line_notation": "CC(C)Oc1c(NC(=O)c2ccc(NC(=O)[C@H](CC(N)=O)NC(=O)c3ccc(NC(=O)c4ccc(S(C)(=O)=O)cc4)cc3)cc2)ccc(C(=O)Nc2ccc(C(=O)O)cc2)c1O", "result": "> 64 mg/L"}
{"line_notation": "CC(C)Oc1c(NC(=O)c2ccc(NC(=O)c3ccc(NC(=O)[C@H](CC(N)=O)NC(=O)c4ccc(NC(=O)c5ccc(C#N)cc5)cc4)cc3)c(OC(C)C)c2O)ccc(C(=O)O)c1O", "result": "≤ 0.03 mg/L"}
{"line_notation": "CC(C)Oc1c(NC(=O)c2ccc(NC(=O)[C@H](CC(N)=O)NC(=O)c3ccc(NC(=O)c4cccc(N)c4)cc3)cc2)ccc(C(=O)Nc2ccc(C(=O)O)cc2)c1O", "result": "> 64 mg/L"}
{"line_notation": "CC(C)Oc1c(NC(=O)c2ccc(NC(=O)[C@H](CC(N)=O)NC(=O)c3ccc(NC(=O)c4ccc(C#N)cc4)cc3)cc2)ccc(C(=O)Nc2ccncc2)c1O", "result": "> 64 mg/L"}
{"line_notation": "CC(C)Oc1c(NC(=O)c2ccc(NC(=O)[C@H](CC(N)=O)NC(=O)c3ccc(NC(=O)c4ccncc4)cc3)cc2)ccc(C(=O)Nc2ccc(C(=O)O)cc2)c1O", "result": "> 64 mg/L"}
{"line_notation": "C/C(=C/c1ccc(C#N)cc1)C(=O)Nc1ccc(C(=O)N[C@@H](CC(N)=O)C(=O)Nc2ccc(C(=O)Nc3ccc(C(=O)Nc4ccc(C(=O)O)cc4)c(O)c3OC(C)C)cc2)cc1", "result": "8 mg/L"}
{"line_notation": "CC(C)Oc1c(NC(=O)c2ccc(NC(=O)[C@H](CC(N)=O)NC(=O)c3ccc(NC(=O)c4ccc([N+](=O)[O-])cc4)cc3)cc2)ccc(C(=O)Nc2ccc(C(N)=O)cc2)c1O", "result": "64 mg/L"}
{"line_notation": "CC(C)Oc1c(NC(=O)c2ccc(NC(=O)[C@H](CC(N)=O)NC(=O)c3ccc(NC(=O)c4ccc(C(F)(F)F)cc4)cc3)cc2)ccc(C(=O)Nc2ccc(C(=O)O)cc2)c1O", "result": "16 to 32 mg/L"}
{"line_notation": "CC(C)Oc1c(NC(=O)c2ccc(NC(=O)[C@H](CC(N)=O)NC(=O)c3ccc(NC(=O)c4ccc([N+](=O)[O-])cc4)cc3)cc2)ccc(C(=O)Nc2ccc(C(=O)O)cc2)c1O", "result": "0.5 mg/L"}

* * *

MIC overview
- Tested on: E. coli ΔtolC
- procedure_details: microbe, parasite or virus in culture
- Format: cell-based
- condition_summary: Escherichia coli, 16 h, read-out: MIC E. coli ΔtolC, small panel, Tables 1a/1b; no visual growth after approx. 16 h

{"line_notation": "CC(C)Oc1c(NC(=O)c2ccc(NC(=O)c3ccc(NC(=O)[C@H](CC(N)=O)NC(=O)c4ccc(NC(=O)c5ccc(C#N)cc5)cc4)cc3)c(OC(C)C)c2O)ccc(C(=O)O)c1O", "MIC": "≤ 0.03 µg/mL"}
{"line_notation": "CO[C@@H](C(N)=O)[C@H](NC(=O)c1ccc(NC(=O)/C(C)=C/c2ccc(C#N)cc2)cc1)C(=O)Nc1ccc(C(=O)Nc2ccc(C(=O)Nc3ccc(C(=O)O)cc3)c(O)c2OC(C)C)cc1", "MIC": "0.5 µg/mL"}
{"line_notation": "C/C(=C\\c1ccc(C#N)cc1)C(=O)Nc1ccc(C(=O)N[C@@H](CC(N)=O)C(=O)Nc2ccc(C(=O)Nc3ccc(C(=O)Nc4ccc(C(=O)O)cc4)c(O)c3OCC(C)C)cc2)cc1", "MIC": "0.06 µg/mL"}
